Conditions: in DMF, 288.15 K
Readout type: solubility (mole fraction)

Q: Give its solubility (mole fraction) value. Item: `Nc1ccc(Oc2ccc(N)cc2)cc1`
A: 0.107

###

Settings: in DMAc, 303.15 K
Readout type: solubility (mole fraction)
When you answer, write just the number.

Q: Recorded solubility (mole fraction) of `Nc1ccc(Oc2ccc(N)cc2)cc1` , please.
A: 0.147

###

Settings: in DMF, 323.15 K
Readout type: solubility (mole fraction)

Q: Please report the recorded solubility (mole fraction) for `Nc1ccc(Oc2ccc(N)cc2)cc1` .
A: 0.145

###

Conditions: in ethanol, 323.15 K
Readout type: solubility (mole fraction)
Answer with a bare number; do not write a unit.

Q: Bench note: what solubility (mole fraction) did `Nc1ccc(Oc2ccc(N)cc2)cc1` show?
A: 0.0027
